assay: Cell survival by FITC-AnnexinV/propidium iodide apoptosis detection, flow cytometry; format: cell-based, mouse; conditions: mouse, NPD1 10 nM alone, no cisplatin; read-out: Set II Cell Viability
measure: viability at 10 nM (%)
Give bare numbers, in %.

Return viability at 10 nM (reported value) for this compound: "CC/C=C\C[C@H](O)\C=C/C=C/C=C/[C@H](O)C/C=C\C/C=C\CCC(=O)[O-].[Na+]"
97

====

experiment: Cell survival by FITC-AnnexinV/propidium iodide apoptosis detection, flow cytometry; assay type: cell-based, mouse; settings: mouse, NPD1 100 nM alone, no cisplatin; average of three experiments; read-out: Cell Viability Avg.
measure: viability at 100 nM (%)
Give bare numbers, in %.

Identify measured viability at 100 nM corresponding to CC/C=C\C[C@H](O)\C=C/C=C/C=C/[C@H](O)C/C=C\C/C=C\CCC(=O)[O-].[Na+] [NPD1]
96.2

====

assay: Cell survival by FITC-AnnexinV/propidium iodide apoptosis detection, flow cytometry; format: cell-based, mouse; conditions: mouse, NPD1 100 nM alone, no cisplatin; read-out: Set II Cell Viability
measure: viability at 100 nM (%)
Give bare numbers, in %.

Assign viability at 100 nM to the following record: CC/C=C\C[C@H](O)\C=C/C=C/C=C/[C@H](O)C/C=C\C/C=C\CCC(=O)[O-].[Na+] [NPD1]
98

====

assay: Cell survival by FITC-AnnexinV/propidium iodide apoptosis detection, flow cytometry; assay type: cell-based, mouse; conditions: mouse, NPD1 1 nM alone, no cisplatin; read-out: Set III Cell Viability
measure: viability at 1 nM (%)
Give bare numbers, in %.

Give a short answer stating reported viability at 1 nM for "CC/C=C\C[C@H](O)\C=C/C=C/C=C/[C@H](O)C/C=C\C/C=C\CCC(=O)[O-].[Na+]" .
98.5

====

assay: Cell survival by FITC-AnnexinV/propidium iodide apoptosis detection, flow cytometry; type: cell-based, mouse; conditions: mouse, NPD1 10 nM alone, no cisplatin; read-out: Set I Cell Viability
measure: viability at 10 nM (%)
One number for each entry, in %.

Give the reported viability at 10 nM for this compound. CC/C=C\C[C@H](O)\C=C/C=C/C=C/[C@H](O)C/C=C\C/C=C\CCC(=O)[O-].[Na+] [NPD1]
96

====

experiment: Cell survival by FITC-AnnexinV/propidium iodide apoptosis detection, flow cytometry; type: cell-based, mouse; settings: mouse, NPD1 1 nM alone, no cisplatin; read-out: Set II Cell Viability
measure: viability at 1 nM
Just so you know, I need the unit written after the number.

Answer with the recorded viability at 1 nM for the compound listed here: "CC/C=C\C[C@H](O)\C=C/C=C/C=C/[C@H](O)C/C=C\C/C=C\CCC(=O)[O-].[Na+]"
96%

====

test: Cell survival by FITC-AnnexinV/propidium iodide apoptosis detection, flow cytometry; type: cell-based, mouse; conditions: mouse, NPD1 10 nM alone, no cisplatin; read-out: Set III Cell Viability
measure: viability at 10 nM (%)
Answers are plain numbers, in %.

Given the compound "CC/C=C\C[C@H](O)\C=C/C=C/C=C/[C@H](O)C/C=C\C/C=C\CCC(=O)[O-].[Na+]" , write its reported viability at 10 nM.
97.7

====

assay: Cell survival by FITC-AnnexinV/propidium iodide apoptosis detection, flow cytometry; assay type: cell-based, mouse; settings: mouse, NPD1 10 nM alone, no cisplatin; average of three experiments; read-out: Cell Viability Avg.
measure: viability at 10 nM (%)
One number for each entry, in %.

Let me know recorded viability at 10 nM for "CC/C=C\C[C@H](O)\C=C/C=C/C=C/[C@H](O)C/C=C\C/C=C\CCC(=O)[O-].[Na+]" , thanks.
96.9

====

Experiment: Cell survival by FITC-AnnexinV/propidium iodide apoptosis detection, flow cytometry
Format: cell-based, mouse
Conditions: mouse, NPD1 100 nM alone, no cisplatin; read-out: Set I Cell Viability
Procedure: The cultures were kept at 33° C. in an incubator with 10% CO2. Cell survival after NPD1 treatment was also analyzed in UB/OC-1 cells in the presence or absence of damage. Specifically, cell death via apoptosis was determined by using FITC-AnnexinV Apoptosis detection kit (BD Pharmingen, San Diego, Calif., USA) and quantified by flow cytometry. […] The results were quantified using the CellQuest software (BD Biosciences, San Jose, Calif.). […]
measure: viability at 100 nM (%)
Answers are plain numbers, in %.

Quickly give me recorded viability at 100 nM for CC/C=C\C[C@H](O)\C=C/C=C/C=C/[C@H](O)C/C=C\C/C=C\CCC(=O)[O-].[Na+] [NPD1]
91
